What Uptake of 3H-thymidine by lymphocytes was measured for each of the following?
Tested on: lymphocytes (mononuclear cells from blood of a healthy adult)
ASSAY COMMENT: Blast formation of lymphocytes stimulated with various lectins (3H-thymidine uptake)
Type: cell-based, human (healthy adult)
PARTICULARS: PWM (15 μg/ml); peptide 10^-8 M; control 13,600

Case H-ADSDGK-OH [ADSDGK, H-Ala-Asp-Ser-Asp-Gly-Lys-OH] , lymphocytes (mononuclear cells from blood of a healthy adult), Uptake of 3H-thymidine by lymphocytes recorded as 14,500 cpm

Entry H-Asp-Gly-Lys-OH [DGK] , lymphocytes (mononuclear cells from blood of a healthy adult) data, Uptake of 3H-thymidine by lymphocytes value: 11,500 cpm

Record H-DSDGK-OH [DSDGK, H-Asp-Ser-Asp-Gly-Lys-OH] / lymphocytes (mononuclear cells from blood of a healthy adult), Uptake of 3H-thymidine by lymphocytes recorded as 9,550 cpm

Kindly note: lymphocytes (mononuclear cells from blood of a healthy adult), H-Ser-Asp-Gly-Lys-OH (H-SDGK-OH) [tetrapeptide] , Uptake of 3H-thymidine by lymphocytes value reported: 10,000 cpm

====

Answer each item with its documented TNF.
Test system: TNF
ASSAY COMMENT: Productivity of humoral factors by lymphocytes: TNF
Type: cell-based, human (healthy adult)
PARTICULARS: additive 10^-6 M; cultivation for a week; control 2,020

For reference, reported TNF for H-ADSDGK-OH [ADSDGK, H-Ala-Asp-Ser-Asp-Gly-Lys-OH] stands at 3,620 pg/ml

Recorded TNF (substance H-Asp-Gly-Lys-OH [DGK] ): 4,730 pg/ml

Kindly note the recorded TNF for H-DSDGK-OH [DSDGK, H-Asp-Ser-Asp-Gly-Lys-OH] , which is 4,270 pg/ml

Entry H-Ser-Asp-Gly-Lys-OH (H-SDGK-OH) [tetrapeptide] , TNF reported as 4,260 pg/ml

====

Test system: lymphocytes (mononuclear cells from blood of a healthy adult)
ASSAY COMMENT: Blast formation of lymphocytes stimulated with various lectins (3H-thymidine uptake)
Type: cell-based, human (healthy adult)
PARTICULARS: PHA (1 μg/ml); peptide 10^-6 M; control 69,600
So I've got a bunch of substances here, and I need their Uptake of 3H-thymidine by lymphocytes values.

Item H-DSDGK-OH [DSDGK, H-Asp-Ser-Asp-Gly-Lys-OH] ; assay system lymphocytes (mononuclear cells from blood of a healthy adult); Uptake of 3H-thymidine by lymphocytes reported as 56,900 cpm

Tested on lymphocytes (mononuclear cells from blood of a healthy adult): H-Ser-Asp-Gly-Lys-OH (H-SDGK-OH) [tetrapeptide] . Observed Uptake of 3H-thymidine by lymphocytes: 59,000 cpm

Noted Uptake of 3H-thymidine by lymphocytes for H-ADSDGK-OH [ADSDGK, H-Ala-Asp-Ser-Asp-Gly-Lys-OH] , tested on lymphocytes (mononuclear cells from blood of a healthy adult): 63,000 cpm

Entry H-Asp-Gly-Lys-OH [DGK] , tested on lymphocytes (mononuclear cells from blood of a healthy adult), has a reported Uptake of 3H-thymidine by lymphocytes of 62,500 cpm

====

Test system: lymphocytes (mononuclear cells from blood of a healthy adult)
ASSAY COMMENT: Blast formation of lymphocytes stimulated with various lectins (3H-thymidine uptake)
Type: cell-based, human (healthy adult)
PARTICULARS: PWM (15 μg/ml); peptide 10^-6 M; control 13,600
PROPERTY: Uptake of 3H-thymidine by lymphocytes

With lymphocytes (mononuclear cells from blood of a healthy adult) as the test system, H-Asp-Gly-Lys-OH [DGK] showed Uptake of 3H-thymidine by lymphocytes of 9,590 cpm

Simply: H-Ser-Asp-Gly-Lys-OH (H-SDGK-OH) [tetrapeptide] , lymphocytes (mononuclear cells from blood of a healthy adult), Uptake of 3H-thymidine by lymphocytes = 9,000 cpm

Entry H-DSDGK-OH [DSDGK, H-Asp-Ser-Asp-Gly-Lys-OH] , tested on lymphocytes (mononuclear cells from blood of a healthy adult), has a reported Uptake of 3H-thymidine by lymphocytes of 13,000 cpm

Tested on lymphocytes (mononuclear cells from blood of a healthy adult), the item H-ADSDGK-OH [ADSDGK, H-Ala-Asp-Ser-Asp-Gly-Lys-OH] showed Uptake of 3H-thymidine by lymphocytes equal to 13,600 cpm

====

System: IL-6
ASSAY COMMENT: Productivity of humoral factors by lymphocytes: IL-6
Type: cell-based, human (healthy adult)
PARTICULARS: additive 10^-6 M; cultivation for a week; control 270
Provide the reported IL-6 of each item.
Record the value in U/ml, omitting the unit from your answer.

For record H-Ser-Asp-Gly-Lys-OH (H-SDGK-OH) [tetrapeptide] the listed IL-6 is 280

Briefly, IL-6 measured for H-ADSDGK-OH [ADSDGK, H-Ala-Asp-Ser-Asp-Gly-Lys-OH] : 270

// field: IL-6; key: H-Asp-Gly-Lys-OH [DGK] ; value = 440

Measured IL-6, H-DSDGK-OH [DSDGK, H-Asp-Ser-Asp-Gly-Lys-OH] : 400

====

Hi there, I'd appreciate the recorded Uptake of 3H-thymidine by lymphocytes for every entry that follows.
Tested on: lymphocytes (mononuclear cells from blood of a healthy adult)
ASSAY COMMENT: Blast formation of lymphocytes stimulated with various lectins (3H-thymidine uptake)
Assay type: cell-based, human (healthy adult)
PARTICULARS: PHA (1 μg/ml); peptide 10^-8 M; control 69,600
Description: Mononuclear cells were collected by the density centrifugal method from blood of a healthy adult drawn in the presence of heparin and suspended in an RPMI-1640 culture medium (manufactured by Gibco) containing 10% by volume of bovine fetus serum (called FBS, manufactured by Dainihon Seiyaku). […] The cells were recovered by a cell harvester (manufactured by Bio-Lab), and uptake of the ^3 H-thymidine was measured by a scintillation counter. […]

Tested on lymphocytes (mononuclear cells from blood of a healthy adult): H-ADSDGK-OH [ADSDGK, H-Ala-Asp-Ser-Asp-Gly-Lys-OH] . Observed Uptake of 3H-thymidine by lymphocytes: 64,100 cpm

The reported Uptake of 3H-thymidine by lymphocytes value, lymphocytes (mononuclear cells from blood of a healthy adult), for H-Asp-Gly-Lys-OH [DGK] reads 62,700 cpm

Record H-Ser-Asp-Gly-Lys-OH (H-SDGK-OH) [tetrapeptide] ; system lymphocytes (mononuclear cells from blood of a healthy adult); Uptake of 3H-thymidine by lymphocytes = 62,100 cpm

Form: item H-DSDGK-OH [DSDGK, H-Asp-Ser-Asp-Gly-Lys-OH] ; test system lymphocytes (mononuclear cells from blood of a healthy adult); Uptake of 3H-thymidine by lymphocytes: 62,000 cpm

Values from patent US5118669A
